Test system: Plasmodium falciparum
test_summary: Antiplasmodial activity against chloroquine-resistant Plasmodium falciparum K1
Assay type: functional, organism-based
reported_metric: IC50 (µM)
Provide only the numeric value, understood in µM.

Example entries and their recorded answers appear below.
[[record]]
compound = "CS(=O)(=O)OC(c1ccc(CNCCCN2CCN(CCC/N=c3\\cc[nH]c4cc(Cl)ccc34)CC2)cc1)c1cccc(Cl)c1 (stereo not given)"
reported_metric = "IC50"
obs_value = 447

[[record]]
compound = "O=C(NCCCN1CCN(CCC/N=c2\\cc[nH]c3cc(Cl)ccc23)CC1)C(c1cccc(Cl)c1)n1ccnc1 (stereo not given)"
reported_metric = "IC50"
obs_value = 200

[[record]]
compound = "CCN(CC)CCCC(C)NC1CC=Nc2cc(Cl)ccc21 (stereo not given)"
reported_metric = "IC50"
obs_value = 260


Input: Fill in: IC50 of OC(c1ccc(CNCCCN2CCN(CCC/N=c3\cc[nH]c4cc(Cl)ccc34)CC2)cc1)c1cccc(Cl)c1 (stereo not given) is ___
Output: 135

Input: Reported IC50, compound O=C(c1ccc(CNCCCN2CCN(CCC/N=c3\cc[nH]c4cc(Cl)ccc34)CC2)cc1)c1cccc(Cl)c1 : ____
Output: 16

* * *

Test system: Plasmodium falciparum
test_summary: Antiplasmodial activity against chloroquine-resistant Plasmodium falciparum W2
Assay type: functional, organism-based
Reported log10 of IC50 values for the following molecules.
Hey, these are logged values: log10 of IC50, µM being the unit before logging.

[[record]]
molecule = "CCN(CC)CCCC(C)NC1CC=Nc2cc(Cl)ccc21 (centres undefined)"
reported_metric = "log10 of IC50"
obs_value = 2.45

[[record]]
molecule = "O=C(c1ccc(CNCCCN2CCN(CCC/N=c3\\cc[nH]c4cc(Cl)ccc34)CC2)cc1)c1cccc(Cl)c1"
reported_metric = "log10 of IC50"
obs_value = 1.52

[[record]]
molecule = "Clc1ccc2/c(=N/CCCN3CCN(CCCNc4nc5ccccc5[nH]4)CC3)cc[nH]c2c1"
reported_metric = "log10 of IC50"
obs_value = 2.73

[[record]]
molecule = "Clc1ccc2/c(=N/CCCN3CCN(CCCNCC4N=CC=N4)CC3)cc[nH]c2c1"
reported_metric = "log10 of IC50"
obs_value = 3.16

[[record]]
molecule = "OC(c1ccc(CNCCCN2CCN(CCC/N=c3\\cc[nH]c4cc(Cl)ccc34)CC2)cc1)c1cccc(Cl)c1 (centres undefined)"
reported_metric = "log10 of IC50"
obs_value = 2.43

[[record]]
molecule = "Clc1ccc2/c(=N/CCCN3CCN(CCCNCc4ccc(CN5CCCC5)cc4)CC3)cc[nH]c2c1"
reported_metric = "log10 of IC50"
obs_value = 2.32

[[record]]
molecule = "CS(=O)(=O)OC(c1ccc(CNCCCN2CCN(CCC/N=c3\\cc[nH]c4cc(Cl)ccc34)CC2)cc1)c1cccc(Cl)c1 (centres undefined)"
reported_metric = "log10 of IC50"
obs_value = 1.99

[[record]]
molecule = "Clc1cccc(C(NCCCN2CCN(CCC/N=c3\\cc[nH]c4cc(Cl)ccc34)CC2)c2ccc(CN3CCCC3)cc2)c1 (centres undefined)"
reported_metric = "log10 of IC50"
obs_value = 2.69


Continue with the molecule presented below.
Input: For the molecule shown here, O=C(NCCCN1CCN(CCC/N=c2\cc[nH]c3cc(Cl)ccc23)CC1)C(c1cccc(Cl)c1)n1ccnc1 (centres undefined) , give the reported log10 of IC50.
Output: 2.73
